System: COLO 205
EXPERIMENTAL DETAILS: NCI tumour cell line growth inhibition, 48 h
Calls of active or inactive are those of the source. No stated cut-off is given here; in the data, active = GI50 up to about 1.1 µM and inactive = higher.
In this section we review reported GI50 values for a set of molecules.
QUANTITY: GI50

In [3]: df
Out[3]:
                                   molecule               result
0  Cc1cc2nc3c(=O)[nH]c(=O)nc-3n(CC(O)C(O)C(O)CO)c2cc1N (stereo not given)  > 100 µM (inactive)
1           c1ccc(-c2cnc3nc4ccccc4nc3n2)cc1   2.15 µM (inactive)
2  O=C(CC(=O)Nc1ccccc1Cl)NNC(Sc1ccccc1)c1cc(/N=N/c2ccc(Br)cc2)ccc1O (stereo not given)   4.35 µM (inactive)
3                       CCCC/C(C)=N/NC(N)=S  > 100 µM (inactive)
4  Cc1[nH]c2ccccc2c1C(=O)CC1(O)C(=O)Nc2c(Cl)cc(Cl)cc21 (stereo not given)   30.1 µM (inactive)
5  Cc1cn(C2CC(O)C(COC(=O)NCCC(F)(F)C(F)(F)C(F)(F)C(F)(F)F)O2)c(=O)[nH]c1=O (stereo not given)  > 100 µM (inactive)
6  COc1ccc2c3c(ccc2c1)NC(C(=O)O)CC3 (stereo not given)   39.5 µM (inactive)
7  O=C(Nc1ccc(Cl)cc1Cl)c1c/c(=N\O)c2ccc(O)cc2o1  > 100 µM (inactive)
8  Cc1cccc(C)c1NC(=O)/C(Cc1nc2ccc([N+](=O)[O-])cc2nc1O)=N\NC(N)=O   38.9 µM (inactive)
9             CSc1[nH]nc(N)c1C(=O)Nc1ccccc1  > 100 µM (inactive)
